# key: entry, value: GI50
# Tested on: OVCAR-5
# ASSAY METHOD TEXT: NCI tumour cell line growth inhibition, 48 h
Calls of active or inactive are those of the source. Rule as the data show it: active = GI50 up to about 1.1 µM and inactive = higher.

- COMPOUND: "Cn1c(=O)c2ccccc2[n+]2c(-c3cccc([N+](=O)[O-])c3)csc12"
  GI50: "> 100 µM (inactive)"
- COMPOUND: "C/C1=C\\[C@@H](C)C[C@@H](C)OC(=O)[C@@H](C)NC(=O)[C@H](Cc2ccc(O)c(Br)c2)N(C)C(=O)CNC(=O)[C@H](C)C1"
  GI50: "13 µM (inactive)"
- COMPOUND: "O=C(O)C1C2C=CC(O2)C1C(=O)Nc1ccccc1 (centres undefined)"
  GI50: "> 100 µM (inactive)"
- COMPOUND: "O=C1NC2C(=O)N(Cc3ccccc3)C(=O)C2N1 (centres undefined)"
  GI50: "> 100 µM (inactive)"
- COMPOUND: "O=C1OC(c2ccccc2)=N/C1=C\\c1cc(Cl)ccc1Cl"
  GI50: "> 100 µM (inactive)"
- COMPOUND: "CN(C)c1ccc(/C=C(\\NC(=O)c2ccccc2)C(=O)NC(CC(=O)O)C(=O)O)cc1 (centres undefined)"
  GI50: "> 100 µM (inactive)"
- COMPOUND: "C[C@H]1C(=O)O[C@@H]2CCN3CC=C(COC(=O)[C@](C)(O)[C@@]1(C)O)[C@H]23"
  GI50: "> 100 µM (inactive)"
- COMPOUND: "c1ccc(CC2COC(c3cccs3)=N2)cc1 (centres undefined)"
  GI50: "> 100 µM (inactive)"
- COMPOUND: "O=S(=O)(N/C(=N\\O)Nc1ccc(Cl)cc1)c1ccccc1"
  GI50: "14.5 µM (inactive)"
